src = the supplement of paper PMC6555819

# Test system: PPARg:RXRa IVT, anti-PPARg (NR concentration 270 nM, RXRa partner concentration 90 nM)
# Experiment notes: PBM binding z-score (relative to random genomic background probes); higher = stronger binding; sequences stand for … in GC…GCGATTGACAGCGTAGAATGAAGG
Classification field: enter Criterion met for PBM binding z-score values not below 3, Criterion not met for values below it.

The following sequences have reported results that may help.
TCATATAGGTAAAAAGTGAAAGTCGGTGTGGTAA :: Criterion not met
TCATATACGTAAACAGGTGAAAGTCCGTAAGTTA :: Criterion not met
GATTGTAGATCAAGGTTAAGAAAGACTAAGCTAA :: Criterion not met
TTACCAAGGTGAAGTTCGTTGATCCCTCTGTAGA :: Criterion not met
AACGAAAGGTCGTGAGGTGAGTATACAGAAAGGC :: Criterion not met

Evaluate GATACAGGGTCAAGGCCAAAGTACGCGTATTGAT : PBM binding z-score at minimum 3?
Criterion met

Determine whether this sequence has PBM binding z-score no lower than 3: ACAGACAGGTGATGAAGGTAACACAGGCTATCAT
Criterion not met

Could you tell me if the measured PBM binding z-score of TCGAGTAGGTTACCAACGGGGCATTCAGCTTTCT reaches 3 or more?
Criterion not met

Identify whether the reported PBM binding z-score of the following sequence is 3 or greater: CGAACTAGGTCATTGACAGGACATTGAATAGTAA
Criterion met

Form field: PBM binding z-score at least 3? Entry: CGTCCATGGTCAAAGGTCAGTGAAGAGATGACGG
Criterion met

Reported PBM binding z-score reaches at least 3 for TTACGAAGGTGAGCTGAGGTCGTTGATCCAACTC ?
Criterion not met

Given GCCGACAGGTGAAACGCAGGTAACTCAGGGTGGC , state whether its PBM binding z-score is at least 3.
Criterion not met

Quick check, PBM binding z-score >= 3? CCTCGGAGGACACAAGGTCAGAGCTGTCCGCTTT
Criterion not met

Record AGAACCAGGGCACGCTGAGTTGATAGCAGAGTAG ; criterion: PBM binding z-score no lower than 3. Met?
Criterion met

Is PBM binding z-score for TCTATTATTTGAAGGGCAACCGACGAGTCCGTTT at or above 3?
Criterion not met

Reported PBM binding z-score at or above 3? AAACCAAGGTGATCGTGAGGTCGTTGATACTAAC
Criterion not met

Does PBM binding z-score meet or surpass 3 for CCTACTGGGCCAAAAAGGTCAGTGATGCCGATAA ?
Criterion met

Would you say CGTCCAAGGTCAGCATGTCAGTGAAAGCGACGTG shows PBM binding z-score at minimum 3?
Criterion not met

====

# System: PPARg homodimer (NR concentration 180 nM)
# Experiment notes: PBM binding z-score (relative to random genomic background probes); higher = stronger binding; sequences stand for … in GC…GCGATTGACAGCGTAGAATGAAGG
Examples of sequences with documented PBM binding z-score follow.

ATCCCTAGGTAAGACTCAGTTCAGTGAAGAACGC :: 0.578
AGTCAAAGTTTACTAGGTAACGTAAGATTCAGCT :: 0.729
GGAACGAGTGCAAAGTTGATAGCATCTGTCGACG :: -0.16

Write down PBM binding z-score measured for item CCGACTGGGGCATAAGGTTACCACAAGCCAGCCC
0.364

Assign PBM binding z-score to the following record: GGAACGAGGGCAAGTAGATAGCAGAGTTTGATGG
-0.0596

Please give measured PBM binding z-score of the following entry: TGTTGTAGATCAAAGGTTAAGAAAGCCGAAGCCT
1.54
